Tested on: U2OS
assay remarks: drug sensitivity score (DSS) for viability; higher = more toxic; extreme values may be limits of the assay
experimental parameters: 72 h
Assign drug sensitivity score to each entry below.
One number for each entry.

>>> print(df.to_string())
                                   compound  reported_value
0  N#CC1(c2ccc(NC(=O)c3cccnc3NCc3ccncc3)cc2)CCCC1 [apatinib]               0

Give one value of drug sensitivity score per listed compound.
1. N=C(N)NCc1cccc(I)c1 [iobenguane]
2. O=C(O)C[C@H](O)C[C@H](O)/C=C/c1c(C2CC2)nc2ccccc2c1-c1ccc(F)cc1 [pitavastatin]
3. C/C1=C/C[C@@H](/C(C)=C/c2csc(C)n2)OC(=O)C[C@H](O)C(C)(C)C(=O)[C@H](C)[C@@H](O)[C@@H](C)CCC1 [epothilone-D]
4. C/C(=N\NC(=O)C(NC(=O)c1ccccc1)c1n[nH]c(=O)c2ccccc12)c1cccc(Br)c1 (stereo not given)

*A*
1: 0; 2: 9.4; 3: 29.4; 4: 0

###

Assignment: determine reported cell viability for the given compounds.
Test system: Caco-2
assay remarks: cell viability relative to DMSO; higher = less toxic
experimental parameters: 72 h; 10 nM
Counter-ions that a name gives are not always drawn.
One number for each entry, in %.

compound	cell viability / %
CN(C)CCCN1c2ccccc2Sc2ccc(Cl)cc21 [chlorpromazine]	97.3
CN[C@H]1CC[C@@H](c2ccc(Cl)c(Cl)c2)c2ccccc21 [SERTRALINE HYDROCHLORIDE]	103
O=C1CC[C@@](c2ccccc2)(C2CCN(Cc3ccc(I)cc3)CC2)C(=O)N1 [iododexetimide]	104
C[C@]1(O)C[C@@H](c2nc(-c3ccc4ccc(-c5ccccc5)nc4c3)c3c(N)nccn32)C1 [linsitinib]	98.9
O=C(O)c1ccc(N[C@@H]2O[C@H](CO)[C@@H](O)[C@H](O)[C@@H]2O)cc1 [K-MAP]	93.3
N=C(N)Nc1ccc(Cl)cc1 [4-chlorophenylguanidine]	100
Nc1nc(NC2CC2)c2ncn([C@H]3C=C[C@@H](CO)C3)c2n1 [ABACAVIR SULFATE]	104
CCn1cc(C(=O)O)c(=O)c2cnc(N3CCCC3)nc21 [piromidic-acid]	90.3

Field: cell viability. Fill in for each record below.
1. COC(=O)Nc1ccc(-c2nc(N3CCOCC3)c3cnn(C4CCN(C(=O)OC)CC4)c3n2)cc1 [WYE-354]
2. Cc1oc2ccccc2c1CNC(=O)NCc1cccs1
3. NC1(Cc2ccc(Cl)cc2)CCN(c2ncnc3[nH]ccc23)CC1
4. Cc1ccccc1N1CCN(S(=O)(=O)C[C@]23CC[C@H](C[C@@H]2NC(=O)[C@@H](N)CCS(C)(=O)=O)C3(C)C)CC1
5. CCC(C)CCCC(=O)N[C@@H](CCN)C(=O)N[C@H](C(=O)N[C@@H](CCN)C(=O)N[C@H]1CCNC(=O)[C@H]([C@@H](C)O)NC(=O)[C@H](CCN)NC(=O)[C@H](CCN)NC(=O)[C@H](CC(C)C)NC(=O)[C@@H](CC(C)C)NC(=O)[C@H](CCN)NC1=O)[C@@H](C)O (stereo not given in full) [colistin]

*A*
[99.3, 106, 109, 93.3, 98.4]

Each compound below has a recorded value; state its cell viability.
1. CCN(CC)C(=O)/C(C#N)=C/c1cc(O)c(O)c([N+](=O)[O-])c1 [entacapone]
2. c1ccc(CNc2nc(NCc3ccccc3)c3ccccc3n2)cc1 [DBeQ]
3. Cc1nccn1CCC(C(N)=O)(c1ccccc1)c1ccccc1 [imidafenacin]
4. c1ccc([C@H]2CNCc3ccccc32)cc1 [4-phenyl-1,2,3,4-tetrahydroisoquinoline]
5. CCc1cccc2c3c([nH]c12)C(CC)(CC(=O)O)OCC3 (stereo not given) [etodolac]

*A*
[98.4, 112, 91.8, 109, 99.4]

// batch mode: one cell viability value per listed entry
1. COC(=O)[C@H](c1ccccc1Cl)N1CCc2sccc2C1 [clopidogrel]
2. FC(F)(F)c1ccc(N2CCNCC2)nc1Cl
3. O=C(O)COc1ccc(OCCNC[C@H](O)COc2ccccc2)cc1 [ICI-215,001]
4. C[C@H](Nc1cc(NS(=O)(=O)N2CCC2)nc(SCc2cccc(F)c2F)n1)[C@@H](O)CO [SRT3190]

*A*
1. 91.8
2. 98.5
3. 111
4. 91

###

Tested on: HepG2
assay remarks: cell viability relative to DMSO; higher = less toxic
experimental parameters: 72 h; 10000 nM
metric name: cell viability
Answers without a unit are incomplete; give the number and then its unit.

A selection of reference data follows.
                                   compound  reported_value
0  CC/C(=C(/CC)c1ccc(OP(=O)(O)O)cc1)c1ccc(OP(=O)(O)O)cc1 [fosfestrol]            107%
1  Cn1ncc(Cl)c1-c1cc(C(=O)N[C@H](CN)Cc2ccc(F)c(F)c2)oc1Cl [uprosertib]           68.4%

Can you give me cell viability for all of these, one by one?
1. O=c1ncccn1[C@@H]1O[C@H](CO)[C@@H](O)[C@H]1O [zebularine]
2. CCC(C)(Oc1ccc(C2(c3ccc(OC(C)(CC)C(=O)O)cc3)CCCCC2)cc1)C(=O)O (stereo not drawn) [clinofibrate]
3. CC(C)N(CC[C@H](c1ccccc1)c1cc(CO)ccc1O)C(C)C [5-hydroxymethyl-tolterodine]

*A*
103%
108%
112%

Working through the 3 compounds below one at a time, give cell viability for each.
1. CCC(NC(C)C)C(O)c1ccc(O)c2[nH]c(=O)ccc12 (stereo not drawn) [procaterol]
2. O=C(Oc1ccc([N+](=O)[O-])cc1)N1CCN(Cc2cccc(Oc3ccccc3)c2)CC1 [JZL-195]
3. CCCCCCOC(=O)NC(=N)c1ccc(NCc2nc3cc(C(=O)N(CCC(=O)OCC)c4ccccn4)ccc3n2C)cc1 [dabigatran-etexilate]

*A*
1: 95.4%; 2: 82.4%; 3: 72.7%

###

Test system: U2OS
assay remarks: drug sensitivity score (DSS) for viability; higher = more toxic; extreme values may be limits of the assay
experimental parameters: 72 h
I'd be grateful if you could share measured drug sensitivity score for these entries.
One number for each entry.

See these solved cases before continuing.
>>> print(df.to_string())
                                   compound  experimental_target             metric_name  reported_value
0  COc1cc2nc(N3CCN(C(=O)c4ccco4)CC3)nc(N)c2cc1OC                 U2OS  drug sensitivity score               0
1  O=C(NCc1ccc(F)cc1)N1CCN2C(=O)OC(c3ccccc3)(c3ccccc3)[C@@H]2C1 (racemic)                 U2OS  drug sensitivity score               0
2  C[C@]12CC[C@@H]3c4ccc(O)cc4CC[C@H]3[C@@H]1CCC2=O                 U2OS  drug sensitivity score               0

Let us move to another entry and its drug sensitivity score.
Record CC(C)Oc1ccc(-c2nc(-c3cccc4c3CC[C@H]4NCCC(=O)O)no2)cc1C#N , field drug sensitivity score: 0

###

Assign cell count to each entry below.
Test system: A549-ACE2 infected with SARS-CoV-2
assay remarks: cell count relative to DMSO; higher = less toxic
experimental parameters: 0.3 µM; 24 h
Numbers only, in %.

                                item_smiles  reported_value
0  CN(C)c1ccc(-c2nc3c(N4CCN(CC(=O)Nc5nccs5)CC4)c(Cl)cnc3[nH]2)cc1             101

Value sought for every listed compound: cell count.
1. CC(=O)[O-].CC(=O)[O-].N.NC1CCCCC1.[Cl-].[Cl-].[Pt+4]
2. COc1ccc(NC(=O)c2ccc(-c3ccc(-c4noc(C)n4)cc3C)cc2)cc1OCCN(C)C
3. CCCCc1oc2ccc(NS(C)(=O)=O)cc2c1C(=O)c1ccc(OCCCN(CCCC)CCCC)cc1

*A*
94
99
100

Value of cell count reported for the compound COc1cc2ncnc(Nc3cccc(Cl)c3)c2cc1OC is 97

###

Test system: Calu-3
assay remarks: cell viability relative to DMSO; higher = less toxic
experimental parameters: 72 h; 1 nM
I'd be grateful if you could share measured cell viability for these entries.
Answers are plain numbers, in %.

>>> df
                                   compound  experimental_target  reported_value
0  CCS(=O)(=O)N1CCN(c2ccc(Nc3ncc(C(N)=O)c(NC4CC4)n3)cc2)CC1               Calu-3            92.1
1  CN[C@@H](C)C(=O)N[C@H](C(=O)N1CCC[C@H]1c1nc(C(=O)c2ccc(F)cc2)cs1)C1CCCCC1 [LCL-161]               Calu-3             106
2  CCCCCN(C)CCC(O)(P(=O)(O)O)P(=O)(O)O [ibandronate]               Calu-3            96.4

Lab note: each compound below needs its cell viability filled in.
1. O=C(CCCN1CCC(O)(c2ccc(Cl)cc2)CC1)c1ccc(F)cc1 [haloperidol]
2. O=C(NCc1ccc(F)cc1)N1CCN2C(=O)OC(c3ccccc3)(c3ccccc3)[C@@H]2C1 (racemic) [SHA-68]
3. Cc1c(NC(=O)OC[C@@H]2COCCN2)cn2ncnc(Nc3ccc4c(cnn4Cc4cccc(F)c4)c3)c12
4. O=C(Nc1cccc(Cl)c1)c1ccccn1
5. COc1ccsc1CNCC[C@@]1(c2ccccn2)CCOC2(CCCC2)C1 [TRV130]

*A*
1: 99.5; 2: 99.7; 3: 97.2; 4: 94.5; 5: 103

Count: 6. Required value per item: cell viability.
1. O=c1ccc2cc(O[C@@H]3O[C@H](CO)[C@@H](O)[C@H](O)[C@H]3O)c(O)cc2o1 [esculin]
2. O[C@@H]1CO[C@H]2[C@@H]1OC[C@@H]2O [isosorbide]
3. C[C@]1(O)C[C@@H](c2nc(-c3ccc4ccc(-c5ccccc5)nc4c3)c3c(N)nccn32)C1 [linsitinib]
4. CC(=O)c1ccc2c(c1)N(CCCN(C)C)c1ccccc1S2 [acepromazine]
5. O=C(O)[C@H]1CN(CCCP(=O)(O)O)CCN1 [CPP]
6. Cc1cccc(OCC(O)CNC(C)(C)C)c1C (centres undefined) [xibenolol]

*A*
[95.4, 97.3, 97.7, 111, 102, 106]

Dear reader, for each entry below, please note its cell viability.
1. NC(=O)[C@H]1CCS[C@@H]2C[C@]3(CCCN3C(=O)Cc3ccc(NC(=O)COc4ccc(Cl)cc4Cl)cc3)C(=O)N12 [ST-2825]
2. CCCC(CCC)C(=O)O[C@H]1C[C@H]2CC[C@@H](C1)[N+]2(C)C [anisotropine]
3. CN(C)C(=O)n1nnnc1Cc1ccc(-c2ccccc2)cc1
4. CCCCc1ncc(/C=C(\Cc2cccs2)C(=O)O)n1Cc1ccc(C(=O)O)cc1 [eprosartan]
5. O=C1C2CC=CCC2C(=O)N1SC(Cl)(Cl)Cl (centres undefined) [captan]

*A*
106
94.7
102
93.8
99.9
